assay: yeast display, Sf9 membrane polyspecificity reagent, FACS + sequencing; frameworks hold sequencing errors
Endpoint Name: polyreactivity (PSR sort gate)

Examples with their reported polyreactivity (PSR sort gate) follow.
| Sequence Data | polyreactivity (PSR sort gate) |
| --- | --- |
| QVQLVESGGGLVQAGGSLRLSCAASGFTFVDYAMGWYRQAPGKERELVATINWDSGSTYADSVKGRFTISRDNAKNTVYLQMNSLKPEDSADYYCAADGDEIEVSFYSWGQGTQVTVSS | low polyreactivity |
| QVHLVESGGAIVQAGGSLRLSCAASGYIFDRNAMAWYRQAPGKERELVAAITKRGGITYYADSVKGRFTISRDNAKNTVYLQMNSLKAEDTAVYYCNALARSSRYDYWGKGTQVTVSS | low polyreactivity |
| QVQLVESGGGLVQAGGSLRLSCAASGRTFITYAMGWYRQAPGKERELVAAISSGGGRTYYADSVKGRFTISRDNAKNTVYLQMNSLKPEDTAVYYCAALYVYPLTYKPSRYPYDYWGQGTQVTVSS | high polyreactivity |
| QVQLVESGGGLVQAGGSLRLSCAASGIFFLYMGWYRQAPGKERELVAAISDSGGTTYYADSVKGRFTISRDNAKNTVYLQMNSLKPEDTAVYYCAAEIENLNWFYWDYLEYDYWGQGTQVTVSS | low polyreactivity |

For reference, reported polyreactivity (PSR sort gate) for "QVQLVESGGGLVQAGGSLRLSCAASGSIFYRYTMGWYRQAPVTERELVAVISRRGGSTYYADSVKGRFTISRDNEKNTVYLQMNRLKPEDTAVYYCAVPQYRTSVRQGNTLWDDYWGQGTQVTVSS" stands at high polyreactivity
